Exercise: state measured normalized growth for each of the compounds provided.
- assayOverview: chemical genetic growth profiling, strain panel (AID 1159580);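 also: tested at 20 µM; growth read once vehicle control cultures reached saturation at 30 °C; 1 = growth at the plate median or of vehicle wells; lower values mean less growth of the strain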
- conditionContext: S. cerevisiae deletion strains, growth OD, locus YBR279W, strain paf1, active compounds read low
Screen size: about 5,500 compounds; about 2,000 (36%) were called active. About 18% were inconclusive and are not listed. The list shows a part of the results.

Reference set (5 entries):
CC1(C)C(=O)[C@@H]2O[C@@H]2[C@@]2(C)C1C[C@@H](O)[C@]1(C)C2CC[C@@]2(C)[C@H](c3ccoc3)OC(=O)C3OC321 (some centres not stated)	0.987 (inactive)
C[C@]12C=CC(=O)C=C1CCC1C2[C@@H](O)C[C@@]2(C)C1CC[C@]2(O)C(=O)CO (some centres not stated)	1 (inactive)
COc1cc(C)c2c(=O)cc(-c3ccccc3)oc2c1	0.942 (inactive)
CC(=O)O[C@H]1C[C@@H](OC(C)=O)C(C)(C)C2C[C@@H](OC(C)=O)[C@]3(C)C(CC[C@@]4(C)[C@H](c5ccoc5)OC(=O)[C@H]5O[C@]543)[C@]21C (some centres not stated)	1 (inactive)
CC(=O)O[C@@H]1CC2C(C)(C)[C@@H](O)CC[C@]2(C)C2CC[C@@]3(C)[C@H](c4ccoc4)OC(=O)[C@H]4O[C@]43[C@@]21C (some centres not stated)	0.998 (inactive)

Value sought for every listed compound: normalized growth.
1. CC(=O)O[C@H]1CC[C@@]2(C)C(C[C@@H](OC(C)=O)[C@]3(C)C2CC[C@@]2(C)[C@H](c4ccoc4)OC(=O)[C@H]4O[C@]423)C1(C)C (some centres not stated)
2. Clc1ccc(C(c2ccccc2Cl)C(Cl)Cl)cc1 (configuration not stated)

**Result**
1 (inactive)
0.987 (inactive)

###

Exercise: for every item that follows, state its recorded normalized growth.
- assayOverview: chemical genetic growth profiling, strain panel (AID 1159580)
- conditionContext: S. cerevisiae deletion strains, growth OD, locus YML016C, strain PPZ1, active compounds read low
About 2,000 (36%) of roughly 5,500 compounds were called active. Inconclusive results (about 18%) are left out. This is one part of the list.
Answers are plain numbers.

Worked cases, answers included:
NCCCC(=O)O	1.01
CC(=O)N[C@@H](CCC(=O)O)C(=O)O	1

List the reported normalized growth of each compound below.
1. CCN1C[C@@]2(COC)C3[C@@H](OC)[C@H]4[C@@H]1[C@]3(C(OC)C[C@H]2O)C1C[C@@]2(O)[C@H](OC(=O)c3ccccc3)C1[C@]4(OC(C)=O)[C@@H](O)[C@@H]2OC (stereo not given in full)
2. CCC(C)C(=O)c1c(O)c(C)c2oc3c(C)c(O)c(C(=O)C(C)CC)c(O)c3c2c1O (stereo not given)
3. CCCCCCCCCCCCCC(=O)OC1C(C)C2(O)C(C=C(CO)CC3(O)C(=O)C(C)=CC32)C2C(C)(C)C12OC(C)=O (stereo not given)
4. NCCCCCC(=O)O

**Result**
[1.02, 0.974, 1.03, 0.996]

###

- assayOverview: chemical genetic growth profiling, strain panel (AID 1159580)
- conditionContext: S. cerevisiae deletion strains, growth OD, locus YOR070C, strain gyp1
The campaign covered roughly 5,500 compounds. About 2,000 (36%) were called active. Inconclusive results (about 18%) are left out. Cut-off read from the data, not from the text of the source: active = normalized growth mostly below about 0.91 (no sharp cut-off); inconclusive = no clear call, values can overlap the other calls; inactive = mostly above about 0.92. The list shows a part of the results. Where a SMILES comes first, the peptide text is derived from it.
Allowed answers: 1 for active, 0 for inactive

Look over these answered cases.
NC1(C(=O)O)CCCC1	0
CCCCC(=O)O[C@]1(C(=O)CO)CCC2C3CCC4=CC(=O)CC[C@]4(C)C3[C@@H](O)C[C@@]21C (stereo partly specified)	0
C[C@@H]1CC[C@H]2C(C)(C)C3CC12CC[C@@]3(C)O (stereo partly specified)	1
NC(=O)NC1NC(=O)NC1=O (stereo unspecified)	0
CC(=O)N[C@@H](CC(=O)O)C(=O)N[C@@H](CCC(=O)O)C(=O)O (Ac-Asp-Glu-OH)	0
NC1(C(=O)O)CC1	0
O=c1cccc2n1CC1CC2CN2CCCC[C@@H]12 (stereo partly specified)	0
C[C@]12C=CC(=O)C=C1CCC1C2[C@@H](O)C[C@@]2(C)C1CC[C@]2(O)C(=O)CO (stereo partly specified)	0

**Query** Dear colleague, could you share the recorded outcome for `O=c1oc2ccccc2cc1O` when you have a moment?
**Result** 0

**Query** Hey, what did the test say about C=NC(C(=O)NC1C(=O)N2C1SC(C)(C)C2C(=O)O)c1ccccc1 (stereo unspecified) ?
**Result** 0

**Query** Returns: the outcome recorded for `CC(=O)O[C@]1(C)CC[C@@]23CC1C(C)(C)[C@@H]2CC[C@H]3C` in this assay.
**Result** 0

###

- assayOverview: chemical genetic growth profiling, strain panel (AID 1159580);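 also: tested at 20 µM; growth read once vehicle control cultures reached saturation at 30 °C; 1 = growth at the plate median or of vehicle wells; lower values mean less growth of the strain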
- conditionContext: S. cerevisiae deletion strains, growth OD, locus YER110C, active compounds read low
Among all 5,500 compounds or so, about 2,000 (36%) were called active. About 18% were inconclusive and are not listed. This is one part of the list. Where a SMILES comes first, the peptide text is derived from it.
Please respond with reported normalized growth for every item in the list.
One number for each entry.

Worked cases, answers included:
COc1ccc(CCC(=O)c2c(O)cc(O[C@@H]3O[C@H](CO)C(O)[C@H](O)C3O[C@@H]3O[C@@H](C)[C@H](O)[C@@H](O)[C@H]3O)cc2O)cc1O (stereo partly drawn)	0.983
CC(=O)N[C@@H](CC(=O)O)C(=O)N[C@@H](CCC(=O)O)C(=O)O (Ac-Asp-Glu-OH)	0.987
O=C(O)CCC1NCC2CC1CN1CCCCC21 (stereo not drawn)	0.999
NC1(C(=O)O)CCCC1	1
CC(=O)O[C@@H]1CC2C(C)(C)C(=O)C3OC3[C@]2(C)C2CC[C@@]3(C)[C@H](c4ccoc4)OC(=O)C4OC43[C@@]21C (stereo partly drawn)	1
O=C1CCCN1CC#CCN1CCCC1	1.02
CCN1C[C@@]2(COC)C3[C@@H](OC)[C@H]4[C@@H]1[C@]3(C(OC)C[C@H]2O)C1C[C@@]2(O)[C@H](OC(=O)c3ccccc3)C1[C@]4(OC(C)=O)[C@@H](O)[C@@H]2OC (stereo partly drawn)	1.04
CC(=O)O[C@@H]1CC2C(C)(C)[C@@H](O)CC[C@]2(C)C2CC[C@@]3(C)[C@H](c4ccoc4)OC(=O)[C@H]4O[C@]43[C@@]21C (stereo partly drawn)	1.02
COc1ccc2oc(-c3ccccc3)c(OC)c(=O)c2c1	0.861
NCCCCNCCCN	0.979

Give normalized growth for all compounds that follow.
1. COP(=S)(OC)Oc1ccc([N+](=O)[O-])cc1
2. Cc1nnc(NS(=O)(=O)c2ccc(N)cc2)s1

**Result**
0.963
0.984

# return normalized growth for each item in the list
1. CCCCCCCCCCCCCC(=O)OC1C(C)C2(O)C(C=C(CO)CC3(O)C(=O)C(C)=CC32)C2C(C)(C)C12OC(C)=O (stereo not drawn)
2. COc1ccc2oc3ccccc3c(=O)c2c1
3. O=C1CCCCC/C=C/CCCCCCCCO1

**Result**
0.994
0.837
0.992

###

- assayOverview: chemical genetic growth profiling, strain panel (AID 1159580);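 also: tested at 20 µM; growth read once vehicle control cultures reached saturation at 30 °C; 1 = growth at the plate median or of vehicle wells; lower values mean less growth of the strain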
- conditionContext: S. cerevisiae deletion strains, growth OD, locus YEL061C, strain CIN8, active compounds read low
About 2,000 (36%) of roughly 5,500 compounds were called active. Another 18% or so got no clear call; they are omitted. The list shows a part of the results.
reportedMetric: normalized growth
Give bare numbers.

CC(=O)O[C@H]1CC[C@@]2(C)C(C[C@@H](OC(C)=O)[C@]3(C)C2CC[C@@]2(C)[C@H](c4ccoc4)OC(=O)[C@H]4O[C@]423)C1(C)C (stereo not given in full)	1.01
O=C1CCCCC/C=C/CCCCCCCCO1	0.999

Hi there! I need normalized growth for each item below, if you can.
1. Cc1onc(-c2ccccc2Cl)c1C(=O)N1CCCN2C(=O)c3ccccc3C21 (stereo not given)
2. Clc1ccc(C(c2ccccc2Cl)C(Cl)Cl)cc1 (stereo not given)
3. CC(=O)O[C@@H]1CC2C(C)(C)[C@H](O)CC[C@]2(C)C2CC[C@@]3(C)[C@H](c4ccoc4)OC(=O)[C@H]4O[C@]43[C@@]21C (stereo not given in full)

**Result**
1. 1.01
2. 1
3. 1.01

###

- assayOverview: chemical genetic growth profiling, strain panel (AID 1159580);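 also: tested at 20 µM; growth read once vehicle control cultures reached saturation at 30 °C; 1 = growth at the plate median or of vehicle wells; lower values mean less growth of the strain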
- conditionContext: S. cerevisiae deletion strains, growth OD, locus YDL005C, strain med2, active compounds read low
The campaign covered roughly 5,500 compounds. About 2,000 (36%) were called active. About 18% were inconclusive and are not listed. Some of the results follow.
I'd appreciate it if you marked entries Condition met when normalized growth is lower than 1 and Condition not met when it is not.

Before answering, review these 2 worked examples.
N[C@@H](C(=O)O)[C@@H](O)[C@H](O)[C@H](O)CO	Condition not met
COc1ccc2c(c1)OCC(Cc1ccc(O)c(OC)c1)C2=O (centres undefined)	Condition met

**Query** Given `COc1c(C)c2c(c(O)c1C/C=C(\C)CCC(=O)O)C(=O)OC2` , is recorded normalized growth strictly lower than 1?
**Result** Condition met

Each recorded value in this set is attributed to PubChem BioAssay AID1159580.
